Target: T1, human FcRn/b2M (human, UniProt P61769 21-119, biotinylated)
T1 construct: bought recombinant biotinylated protein (ACRO FCM-H82W4 or Immunitrack ITF01); also called hFcRn; hFcRn/hb2M
T1 sequence (chain, as listed by the source limits assumed, chain 1 of 2): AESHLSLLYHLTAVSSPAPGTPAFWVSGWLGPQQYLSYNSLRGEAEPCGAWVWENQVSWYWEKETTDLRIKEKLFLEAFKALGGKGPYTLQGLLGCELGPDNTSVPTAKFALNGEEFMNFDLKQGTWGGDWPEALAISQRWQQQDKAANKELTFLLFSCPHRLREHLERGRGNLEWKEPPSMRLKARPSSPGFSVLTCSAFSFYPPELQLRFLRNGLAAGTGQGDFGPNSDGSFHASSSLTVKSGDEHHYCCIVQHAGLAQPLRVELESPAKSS
T1 sequence (P61769 21-119 limits assumed, chain 2 of 2): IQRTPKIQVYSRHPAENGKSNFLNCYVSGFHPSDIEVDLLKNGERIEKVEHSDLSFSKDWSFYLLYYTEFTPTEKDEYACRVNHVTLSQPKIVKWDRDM
Assay: SPR pH 6.0;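 also: surface plasmon resonance kinetics at 25 °C, diluted periplasmic extracts injected over immobilized ligand surfaces, 120 s association then 600–3600 s dissociation, running buffer containing 150 mM NaCl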

binder	koff, s⁻¹
T0263018B11 T96Y (VHH, name in Kabat numbering, FLAG3-His6 tagged) VHH: EVQLVESGGGVVQPGGSLRLSCAASGFTFSSYAMYWVRQAPGKGLEWVSAISSGGGSTDYADSVKGRFTISRDNSKNTLYLQMNSLRPEDTALYYCAADYLYTSLTWYSYWGQGTLVTVSS	0.00054
T0263018B11 A33S (VHH, name in Kabat numbering, FLAG3-His6 tagged) VHH: EVQLVESGGGVVQPGGSLRLSCAASGFTFSSYSMYWVRQAPGKGLEWVSAISSGGGSTDYADSVKGRFTISRDNSKNTLYLQMNSLRPEDTALYYCAADTLYTSLTWYSYWGQGTLVTVSS	0.0015
T0263018B11 F29G (VHH, name in Kabat numbering, FLAG3-His6 tagged) VHH: EVQLVESGGGVVQPGGSLRLSCAASGFTGSSYAMYWVRQAPGKGLEWVSAISSGGGSTDYADSVKGRFTISRDNSKNTLYLQMNSLRPEDTALYYCAADTLYTSLTWYSYWGQGTLVTVSS	0.0033
T0263018B11 T57W (VHH, name in Kabat numbering, FLAG3-His6 tagged) VHH: EVQLVESGGGVVQPGGSLRLSCAASGFTFSSYAMYWVRQAPGKGLEWVSAISSGGGSWDYADSVKGRFTISRDNSKNTLYLQMNSLRPEDTALYYCAADTLYTSLTWYSYWGQGTLVTVSS	0.0009
